assay: yeast display, Sf9 membrane polyspecificity reagent, FACS + sequencing; frameworks hold sequencing errors
Property: polyreactivity (PSR sort gate)

QVQLVESGGGLVQAGGSLRLSCAASGSTIGLNAMGWYIQEPGKEREFVAAISVSSGNKYYADSVKGRFTISRDNAKNTVYLQMNSLKPEDTAVYYCAARPRSHYIAQYYYWGQGTHVTVSS low polyreactivity
QVKLVESGGGLVQAGGSLRLSFAASGSIFFIYAMGWYRQETGKERELVASINSGGTTSNADSVKGRFTISRDNAKNTVYLQLNSLKPADTAVYYCATRGIVGILDSLSEEYYYWGQGTQVSVSS low polyreactivity
QVQLVESGGGLVQAGGSLRLSCAASGFIFSTNAMGWYRQAPGKERELVAAISRRGGNTYYADSVKGRFTISRDNAKNTVYLQMNSLKPEDTAVDYCNAVFRSGGLDYWGQGTQVTVSS high polyreactivity
QVQLVESGGGLVQAGGSLRLSCAASGSTLSLYAMGWYRQAPGKERELVAAITSSGGTYYADSVKGRFTISRDNAKNTVYLQMNSLKPEDTAVYYCNAYAKDARSYGYHRVNYWGQGTQVTVSS high polyreactivity
QVQLVESGGGLVQAGGSLRLSCAASGFTFNRYAMGWYRQAPGKERELVATITSGGNTYYADSVKGRFTISRDNAKNTVYLQMNSLKPEDTAVYYCNKRGWYSVYRRDFWGQGTQVTVSS high polyreactivity
QVQLVESGGGLVQAGGSLRLSCAASGRIFVRNAMGWYRQAPGKERELVADITNGGSTNYADSVKGRFTISRDNAKNTVYLQMNSLNPEDTAVYYCAADTLGVYDGDYWGQGTQVTVSS low polyreactivity
QVQLEESCGGLVQAGGSLRLSCAAYGRIFGNYAMGWYRQATGKETELVAAITRGSTYYADSVKGRFTISRDNSKNTVYLQMNSLKPEDTAFYYCNARPRVPGVLYLYDYWGQGTQVTVSS high polyreactivity
QVQLVESGGGLVQAGGSLRLSCASSGITFDKYAMGWYRQAPGKERELVAAINRSGGSTYYADSVKGRFTISRDNAKNTVYLQINSLKPEDTAVYYCAAVKPPDYYYWGQGTQVTVSS high polyreactivity

Reported polyreactivity (PSR sort gate), sequence QVQLVESGGGLDQAGGSLRLSCAASGSIFYFNAMGWYRQAPGKARELVAAISTSGGSTYADSVKGRFTISRDNAKYTVYLQMNSLKPEDSAVYYFAADYLTSRSRTFDYWGQGTQVTVSS : ____
low polyreactivity

Follow-up item: QVQLVESGGGLVQAGGSLRLSCAASGSIFLIYAMGGYRPAPGKERELVAGINWSGSRTYYADSVKGRFTISRDNAKNTVYLQMNSLKPEDTAVYYCAARVRRPLYSAYDSWGQGTQVTVSS
low polyreactivity

Follow-up item: QVQLVESGGGLVQAGGSLRLSCAASGITFYRYAMGWYRQAPGKERELVAGITRSGGSTYYADSVKGRFTISRDNAKNTVYLQMNSLKPEDTAVYYCAARIYSFRTKGGYGYWGQGTQVTVSS
high polyreactivity

Follow-up item: QVQLVESGGGLVQAGGSLRLSCAASGIIFSWYAMGWYRQAPGKERELVASITASGGSTYYADSVKGRFTISRDNAKNTVYLQMNSLKPEDTAVYYCAVRYGHRSFASVYVEYEYWGQGTQVTVSS
low polyreactivity

Follow-up item: QVQLVESGGGLLQAGGSLRLICAASGSIFGANTMGWYRPAPGKERELVAGITSGARTYYADSVKGRFTMSRDNAKNTVYLQMNSLQPEDTAVYYCAANYAWRRYGYWGNGTQVTVSS
high polyreactivity

Follow-up item: QVQLVESGGGLVQAGGSLRLSCAASGSILPTNAMGWYRPAPGKERELVASITYNGGRTSYADSVKGRFTISRDNAKNTVYLQMNSLKPEDTAVYYCAARVWYQGYKSMGYWGQGTQVTVSS
high polyreactivity

Follow-up item: QVQLVESGGGLVQAGGRLSLSCAASGSIFRPNPMGWYRQAPGKERELVAAITWSGDSTYYADSVKGRFTISRDNAKNTVYLKMNSLKPEDTAVYYCAADFTYQGSSANDYWGQGTQVTVSS
low polyreactivity

Follow-up item: QVQLVESGGGLVQAGFSLRLSCAASGSILGSYVMGWCRQAPGKESELVAASSYSTSATYYADSVKGRFTISRDNAKNTVYLQMNSLKPEDPAVYYCNADLGSWYTWYDDWGQGTQVTVSS
high polyreactivity

Follow-up item: QVQLVESVGGLVQAGGSLRLSCAASGRIFGVYAMGWYRQAPGKERELVAAISEGGGSTNYADSVKGRFTISRDNAKNTVYLQMNSLKPEDTAVYYCAATYRTGVRRYYSWGQGTQVTVSS
low polyreactivity

Follow-up item: QVQLVESGGGLVQAGGSLRLSSAASGRTFRGYAMGWYRQAPGKERELVAAISVTGSSTNYAYSVKGRFTISRDNAKNTVYLQMNRLKPEDTAVYDCNAKRVRYSLSYDYWGQGTQVTVSS
high polyreactivity

Follow-up item: QVQLVESGGWLVQAGGSLRLSCAASGSSFYGYGMGSYRQAPGKERELVAANTGSGDTTYYADSVKGRFTNSRDNEKNTVYLQMNSLKPEDTAVYYCNARWHAEYDYWGQGTQVTVSS
low polyreactivity

Follow-up item: QVQLVESGGGLVQAGGSLRLSCAASGLIFSSYAMGWYRQAPGQERELVAAITGSGGRTYYADSVKGRFTISRDNAKNTVYLQMNSLKPEDTAVYYWNRRSRRQGGYWGQGTHVTVSS
high polyreactivity

Follow-up item: QVQLVESGGGLVQAGGRLRLSCAASGSTFEVNAMGWYRQAPGKERELVAAISSSAGDTYYADSVKGRFTISRDNAKYTVYLQMNSLKPEDTAVYYCAADYGYSPFDYWGQGTQVTVSS
low polyreactivity
